# Test system: HEK-293T
# Test details: Multiplex assay against HEK293T
# Type: toxicity, cell-based
# Run parameters: human, 24 h, 10 µM, compound concentration 10 uM, replicate 2
Non-standard residues stand in square brackets, D forms with d. Residues, ends and D or L forms follow the SMILES beside them.
Experimental endpoint: Population Tubulin-Different-Phenotype (%)
Give your result in % as a bare value.

Below, 6 molecules whose answers are already recorded.
| Molecule | Result value |
| --- | --- |
| COc1c(Nc2ccc(S(C)(=O)=O)nc2C)ncnc1OC1CCN(C(=O)OC(C)C)CC1 [ADP-597] | 25 |
| O=C(Nc1cc(-c2ccccc2)nn1-c1ccccc1F)c1ccc([N+](=O)[O-])cc1 | 33 |
| COc1cc(OC2CCN(C(C)=O)CC2)ccc1C(=O)N1CCC(N2C(=O)OCc3ccccc32)CC1 | 29 |
| CCc1nn2c(C)cc(C)nc2c1Cc1ccc(-c2nnc(C3CCNCC3)o2)cc1 | 45 |
| Nc1nc(-c2ccco2)c2cnn(Cc3ccccc3F)c2n1 | 23 |
| O=c1ccc2ccc(OCCCCN3CCN(c4cccc5sccc45)CC3)cc2[nH]1 [BREXPIPRAZOLE] | 57 |

Recorded Population Tubulin-Different-Phenotype (%) for CC(C)C[C@@H]1NC(=O)[C@@H](C(C)C)NC(=O)[C@@H]2CCCN2C(=O)[C@@H](CC(=O)O)NC(=O)[C@@H](Cc2c[nH]c3ccccc23)NC1=O [BQ-123] (cyclo(L[dW][dD]P[dV])) , please? 18

Requested field: Population Tubulin-Different-Phenotype (%). Item: "Cc1cc(O)c(-c2ccc([C@@H](C)CN(C)C)cc2)c2c1[nH]c(=O)c1sccc12" 80

// Population Tubulin-Different-Phenotype (%) lookup, key: "COc1cc(C(=O)N2CC[C@@H](O)[C@@H](N)C2)cc2nc(-c3cc4ccccc4n3CC3CC3)n(C)c12.Cl" 74

Form field: reported Population Tubulin-Different-Phenotype (%) of "CN1CCN(c2ccc(Nc3c4ccccc4nc4ccccc34)cc2)CC1.Cl.Cl.O" 91

May I ask what Population Tubulin-Different-Phenotype (%) has been recorded for "Cc1nn(C)c2nc(NNC(=O)Nc3cc(Cl)nc(Cl)c3)cc(C(C)C)c12" ? 69

Sample "CC(C)(O)C(=O)N1CCN(c2ccc(C(F)(F)F)c(C3=C(c4c[nH]c5ccccc45)C(=O)NC3=O)c2)CC1" — what was its Population Tubulin-Different-Phenotype (%)? 60

I would be grateful if you could share the reported Population Tubulin-Different-Phenotype (%) for COc1cc(Nc2ncc3c(n2)-c2ccc(Cl)cc2C(c2c(F)cccc2OC)=NC3)ccc1C(=O)O [ALISERTIB] . 50

Can you share its Population Tubulin-Different-Phenotype (%)? I mean this molecule: Cc1c(Cc2ccc3ccccc3n2)c2cc(F)ccc2n1CC(=O)O [TIMAPIPRANT] 20

====

# System: Fibroblast
# Test details: Multiplex assay against human fibroblast
# Format: toxicity, cell-based
# Run parameters: 24 h, 10 µM, compound concentration 10 uM, replicate 1
// reported Population Hoechst High Intensity Objects (%) per item
Write down the numeric answer in % and omit the unit.

| Molecule | Tested system | Result value |
| --- | --- | --- |
| Cc1cc(-c2ccc3c(c2)CC[C@H]3N2CC3(CCN(C(=O)Cc4cn5cc(C)sc5n4)CC3)C2)ncn1 | Fibroblast | 3 |
| CCCCCCNC(=O)Nc1ccc(S(=O)(=O)Nc2ccc(CCNC[C@H](O)COc3ccc(O)cc3)cc2)cc1 | Fibroblast | 8 |

I'd like to know its Population Hoechst High Intensity Objects (%). The molecule in question is "O=c1nc2[nH]c3ccccc3nc-2c(=O)[nH]1" 3

Can you look up the measured Population Hoechst High Intensity Objects (%) of CN1C[C@H](C(=O)N[C@]2(C)O[C@@]3(O)[C@@H]4CCCN4C(=O)[C@H](Cc4ccccc4)N3C2=O)C[C@@H]2c3cccc4[nH]cc(c34)C[C@H]21.CS(=O)(=O)O [DIHYDROERGOTAMINE MESYLATE] for me? 1
